Sourced from PubChem BioAssay (NCI)

Examples of molecules with documented TGI follow.
# Tested on: SNB-19 CNS
# assay summary: NCI tumour cell line growth inhibition, 48 h
property measured: TGI

COc1cccc(/C=C2\N=C(c3ccccc3)OC2=O)c1	> 100 µM
CNC(=O)[C@H](Cc1ccccc1)NC(=O)N(CCC#N)CCN(C(=O)N[C@@H](Cc1ccccc1)C(=O)OC)c1ccccc1	> 100 µM
CCCCCCCCCCCC/C=C\CC[C@@H](O)[C@H](O)CC[C@H](O)[C@@H]1CC[C@@H](CCCCCCCC2=C[C@H](C)OC2=O)O1	29.3 µM
COC(=O)c1ccccc1C1CN=NC12Cc1ccc(C)cc1C2=O (stereo unspecified)	> 100 µM
C[N+](C)(C)CC1CCC(C[N+](C)(C)C)C1=NO (stereo unspecified)	> 100 µM
COC(=O)CN1CCN(c2cccc3c2CCCC3)CC1	> 100 µM
Cc1cccc2c(=O)c3c(O)cc(O)cc3n(C)c12	> 100 µM
Cc1nc2c(C)ccc([N+](=O)[O-])c2c(NCCCN(C)C)c1C	> 100 µM
Cc1cc(N2CCC(N3CCCC3)CC2)nc(/N=C(\N)Nc2ccc(Cl)c(Cl)c2)n1	5.63 µM
COC(=O)C(=O)C(C(=O)C(=O)Nc1ccc([N+](=O)[O-])cc1)c1nc2ccccc2[nH]c1=O (stereo unspecified)	> 100 µM
CN(CCN)[C@H](CSSC[C@@H](c1ccccc1O)N(C)CCN)c1ccccc1O	26.2 µM
N#C[S-].[La+3].c1ccc(-c2ccccn2)nc1.c1ccc(-c2ccccn2)nc1.c1ccc(-c2ccccn2)nc1	> 100 µM
CC(C)=CCC[C@@H](C)C1=C(O)C(N[C@H](C)c2ccccc2)=C(C)C(=O)C1=O	> 100 µM
O=c1[nH]c2cc(Cl)ccc2nc1/C(=N\Nc1ccccc1)C(O)c1ccc2c(c1)OCO2 (stereo unspecified)	> 100 µM
COc1ccc(-c2nsc3c2NC(=O)CC3c2ccsc2)cc1 (stereo unspecified)	> 100 µM
Cc1ccc(NCCNCC(C)(C)O)c2c(=O)c3ccc(Cl)cc3sc12	3.27 µM
Nc1nc(SCc2ccccc2Cl)c2ncn(C3OC(CO)C(O)C3O)c2n1 (stereo unspecified)	> 100 µM
CC(C)(O)C1COC2=C1C(=O)c1ccccc1C2=O (stereo unspecified)	> 100 µM
COc1cc(C2CC(c3ccccc3)=NN2C=O)ccc1Oc1ccnc2cc(Cl)ccc12 (stereo unspecified)	> 100 µM
COc1ccc(/C=C/C(=N\NC(=O)c2ccccc2)c2sc(Nc3ccc([N+](=O)[O-])cc3)nc2C)cc1OC	32.5 µM
S=c1ssnc1-c1cc2ccccc2o1	36.8 µM
